Assignment: determine reported MIC for the given compounds.
System: Staphylococcus aureus D136
assay overview: MIC by serial two-fold agar dilution, S. aureus D136
Assay type: cell-based
recorded conditions: Staphylococcus aureus, D136
State the answer as a number, implicitly in µg/mL.

MIC for NC[C@@H]1O[C@H](O[C@H]2[C@@H](O)[C@H](O[C@@H]3[C@@H](O)[C@H](N)C[C@H](N)[C@H]3O[C@H]3O[C@H](CN)[C@@H](O)[C@H](O)[C@H]3N)O[C@@H]2CO)[C@H](N)[C@@H](O)[C@@H]1O [Neomycin B, neomycin B] is 0.4

Query NC[C@@H]1O[C@H](O[C@H]2[C@@H](O)[C@H](O[C@@H]3[C@@H](O)[C@H](N)C[C@H](N)[C@H]3O[C@H]3O[C@H](CO)[C@@H](O)[C@H](O)[C@H]3N)O[C@@H]2CO)[C@H](N)[C@@H](O)[C@@H]1O [Paromomycin, paromomycin] yields MIC of 0.8

// sample NC[C@H]1O[C@H](O[C@H]2[C@H](O[C@@H]3O[C@H](CO)[C@@H](O[C@H]4O[C@H](CN)[C@@H](O)[C@H](O)[C@H]4N)[C@H]3O)[C@@H](O)[C@H](N)C[C@@H]2N)[C@H](N)[C@@H](O)[C@@H]1O [Neomycin C, neomycin C] , its MIC was 1.6

// field: MIC; key: NC[C@H]1O[C@H](O[C@H]2[C@H](O[C@@H]3O[C@H](CO)[C@@H](O)[C@H]3O)[C@@H](O)[C@H](N)C[C@@H]2N)[C@H](N)[C@@H](O)[C@@H]1O [Ribostamycin, ribostamycin] ; value = 3.1

###

Record form. Attribute: MIC. Fill in for each entry.
System: Staphylococcus aureus 209P
assay overview: MIC by serial two-fold agar dilution, S. aureus 209P
Format: cell-based
recorded conditions: Staphylococcus aureus, 209P; Table 7; Mueller-Hinton agar; read-out: MIC
Just the number please, in µg/mL, no unit attached.

Kindly note the recorded MIC for NC[C@@H]1O[C@H](O[C@H]2[C@@H](O)[C@H](O[C@@H]3[C@@H](O)[C@H](O)C[C@H](N)[C@H]3O[C@H]3O[C@H](CN)[C@@H](O)[C@H](O)[C@H]3N)O[C@@H]2CO)[C@H](N)[C@@H](O)[C@@H]1O [Bu-2659A, 1-deamino-1-hydroxyneomycin B] , which is 0.8

Value of MIC reported for the molecule NC[C@@H]1O[C@H](O[C@H]2[C@@H](O)[C@H](O[C@@H]3[C@@H](O)[C@H](O)C[C@H](N)[C@H]3O[C@H]3O[C@H](CO)[C@@H](O)[C@H](O)[C@H]3N)O[C@@H]2CO)[C@H](N)[C@@H](O)[C@@H]1O [Bu-2659C, 1-deamino-1-hydroxyparomomycin I] is 3.1

Please fill in: MIC reported for NC[C@H]1O[C@H](O[C@H]2[C@H](O[C@@H]3O[C@H](CO)[C@@H](O[C@H]4O[C@H](CN)[C@@H](O)[C@H](O)[C@H]4N)[C@H]3O)[C@@H](O)[C@H](O)C[C@@H]2N)[C@H](N)[C@@H](O)[C@@H]1O [Bu-2659B, 1-deamino-1-hydroxyneomycin C] = 3.1

Recorded result, NC[C@H]1O[C@H](O[C@H]2[C@H](O[C@@H]3O[C@H](CO)[C@@H](O)[C@H]3O)[C@@H](O)[C@H](O)C[C@@H]2N)[C@H](N)[C@@H](O)[C@@H]1O [Bu-2659E, 1-deamino-1-hydroxyribostamycin] , MIC: 25

Reported MIC ( NC[C@H]1O[C@H](O[C@H]2[C@H](O[C@@H]3O[C@H](CO)[C@@H](O[C@H]4O[C@@H](CO)[C@@H](O)[C@H](O)[C@H]4N)[C@H]3O)[C@@H](O)[C@H](O)C[C@@H]2N)[C@H](N)[C@@H](O)[C@@H]1O [Bu-2659D] ) = 6.3

###

Test system: Escherichia coli NIHJ
assay overview: MIC by serial two-fold agar dilution, E. coli NIHJ
Type: cell-based
recorded conditions: Escherichia coli; Table 7; Mueller-Hinton agar; read-out: MIC
Method: The minimum inhibitory concentrations (MIC) of Bu-2659A, B, C, D and E were determined for a variety of gram-positive and gram-negative bacteria by the serial two-fold agar dilution method using the Steer's multi-inoculating apparatus. The inoculum was standardized as a 10^4 dilution of an overnight culture of the test organisms in Heart Infusion Broth (Difco). […]
Task for the reader: assign each of the following compounds its reported log10 of MIC.
Would you kindly interpret these values as log10 of MIC expressed in µg/mL?

Short answer for NC[C@@H]1O[C@H](O[C@H]2[C@@H](O)[C@H](O[C@@H]3[C@@H](O)[C@H](O)C[C@H](N)[C@H]3O[C@H]3O[C@H](CN)[C@@H](O)[C@H](O)[C@H]3N)O[C@@H]2CO)[C@H](N)[C@@H](O)[C@@H]1O [Bu-2659A, 1-deamino-1-hydroxyneomycin B] : log10 of MIC was 0.20

log10 of MIC measured on NC[C@H]1O[C@H](O[C@H]2[C@H](O[C@@H]3O[C@H](CO)[C@@H](O)[C@H]3O)[C@@H](O)[C@H](O)C[C@@H]2N)[C@H](N)[C@@H](O)[C@@H]1O [Bu-2659E, 1-deamino-1-hydroxyribostamycin] = 1.70

Consider NC[C@H]1O[C@H](O[C@H]2[C@H](O[C@@H]3O[C@H](CO)[C@@H](O[C@H]4O[C@H](CN)[C@@H](O)[C@H](O)[C@H]4N)[C@H]3O)[C@@H](O)[C@H](O)C[C@@H]2N)[C@H](N)[C@@H](O)[C@@H]1O [Bu-2659B, 1-deamino-1-hydroxyneomycin C] . Its measured log10 of MIC is 1.10

The value of log10 of MIC measured for the compound NC[C@H]1O[C@H](O[C@H]2[C@H](O[C@@H]3O[C@H](CO)[C@@H](O[C@H]4O[C@@H](CO)[C@@H](O)[C@H](O)[C@H]4N)[C@H]3O)[C@@H](O)[C@H](O)C[C@@H]2N)[C@H](N)[C@@H](O)[C@@H]1O [Bu-2659D] turned out to be 1.10

Notebook: NC[C@@H]1O[C@H](O[C@H]2[C@@H](O)[C@H](O[C@@H]3[C@@H](O)[C@H](O)C[C@H](N)[C@H]3O[C@H]3O[C@H](CO)[C@@H](O)[C@H](O)[C@H]3N)O[C@@H]2CO)[C@H](N)[C@@H](O)[C@@H]1O [Bu-2659C, 1-deamino-1-hydroxyparomomycin I] , log10 of MIC read as 0.80

log10 of MIC for NC[C@@H]1O[C@H](O[C@H]2[C@@H](O)[C@H](O[C@@H]3[C@@H](O)[C@H](N)C[C@H](N)[C@H]3O[C@H]3O[C@H](CO)[C@@H](O)[C@H](O)[C@H]3N)O[C@@H]2CO)[C@H](N)[C@@H](O)[C@@H]1O is 0.49

###

assay overview: Acute toxicity in mice
Assay type: in vivo
recorded conditions: mouse, in vivo, ip; intraperitoneal, mice; read-out: LD50
property: LD50 (mg/kg)
Express it in mg/kg; write the number only.

compound NC[C@@H]1O[C@H](O[C@H]2[C@@H](O)[C@H](O[C@@H]3[C@@H](O)[C@H](O)C[C@H](N)[C@H]3O[C@H]3O[C@H](CN)[C@@H](O)[C@H](O)[C@H]3N)O[C@@H]2CO)[C@H](N)[C@@H](O)[C@@H]1O [Bu-2659A, 1-deamino-1-hydroxyneomycin B] , LD50 observed: 460

###

Please go through the items and note down their MIC.
Test system: Micrococcus flavus D12
assay overview: MIC by serial two-fold agar dilution, M. flavus D12
Format: cell-based
recorded conditions: Micrococcus flavus, D12
Express the result in µg/mL but write the number alone.

Data point: NC[C@@H]1O[C@H](O[C@H]2[C@@H](O)[C@H](O[C@@H]3[C@@H](O)[C@H](N)C[C@H](N)[C@H]3O[C@H]3O[C@H](CN)[C@@H](O)[C@H](O)[C@H]3N)O[C@@H]2CO)[C@H](N)[C@@H](O)[C@@H]1O [Neomycin B, neomycin B] ; MIC = 1.6

Consider NC[C@H]1O[C@H](O[C@H]2[C@H](O[C@@H]3O[C@H](CO)[C@@H](O)[C@H]3O)[C@@H](O)[C@H](N)C[C@@H]2N)[C@H](N)[C@@H](O)[C@@H]1O [Ribostamycin, ribostamycin] . Its measured MIC is 12.5

Short answer for NC[C@@H]1O[C@H](O[C@H]2[C@@H](O)[C@H](O[C@@H]3[C@@H](O)[C@H](N)C[C@H](N)[C@H]3O[C@H]3O[C@H](CO)[C@@H](O)[C@H](O)[C@H]3N)O[C@@H]2CO)[C@H](N)[C@@H](O)[C@@H]1O [Paromomycin, paromomycin] : MIC was 12.5

MIC for NC[C@H]1O[C@H](O[C@H]2[C@H](O[C@@H]3O[C@H](CO)[C@@H](O[C@H]4O[C@H](CN)[C@@H](O)[C@H](O)[C@H]4N)[C@H]3O)[C@@H](O)[C@H](N)C[C@@H]2N)[C@H](N)[C@@H](O)[C@@H]1O [Neomycin C, neomycin C] is 100
